Source of measurements: PubChem BioAssay AID1159580

Would you kindly list normalized growth for each of these compounds?
Test: chemical genetic growth profiling, strain panel (AID 1159580);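 further: tested at 20 µM; growth read once vehicle control cultures reached saturation at 30 °C; 1 = growth at the plate median or of vehicle wells; lower values mean less growth of the strain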
Conditions: S. cerevisiae deletion strains, growth OD, locus YHR094C, strain hxt1, active compounds read low
Out of some 5,500 compounds screened, about 2,000 (36%) were called active. Inconclusive results (about 18%) are left out. Some of the results follow.

Lookup result for O=C(OCc1ccccc1)c1ccccc1 ; measured normalized growth: 0.967 (inactive)

Lookup result for C[C@H]1c2cccc(O)c2C(O)=C2C(=O)[C@]3(O)C(O)=C(C(N)=O)C(=O)[C@@H](N(C)C)[C@@H]3[C@@H](O)[C@@H]21 ; measured normalized growth: 0.987 (inactive)

Lookup result for CC(=O)O[C@@H]1CC2C(C)(C)[C@H](O)C=C[C@]2(C)C2CC[C@]3(C)C(=CC(=O)O[C@H]3c3ccoc3)[C@@]21C (stereo partly drawn) ; measured normalized growth: 1 (inactive)

Lookup result for CC(=O)O[C@@H]1CC2C(C)(C)C(=O)C=C[C@]2(C)C2CC[C@]3(C)C(=CC(=O)O[C@H]3c3ccoc3)[C@@]21C (stereo partly drawn) ; measured normalized growth: 0.969 (inactive)

Lookup result for C[n+]1ccccc1/C=N/O ; measured normalized growth: 1 (inactive)

Lookup result for CC12CCC(=O)C=C1CCC1C2[C@@H](O)CC2(C)C1CC[C@]2(O)C(=O)COP(=O)(O)O (stereo partly drawn) ; measured normalized growth: 1.01 (inactive)

Lookup result for CCC(C)C(=O)OC1[C@@H]2CC3=C4CC(=O)O[C@@H](c5ccoc5)[C@]4(C)CCC3[C@@](C)(C2=O)[C@@H](CC(=O)OC)C1(C)C (stereo partly drawn) ; measured normalized growth: 1 (inactive)

Lookup result for O=C1NC(O)=NC1(c1ccccc1)c1ccccc1 ; measured normalized growth: 1.01 (inactive)

Lookup result for C=C1c2cccc(O)c2C(O)=C2C(=O)[C@]3(O)C(O)=C(C(N)=O)C(=O)[C@@H](N(C)C)[C@@H]3[C@@H](O)[C@H]12 ; measured normalized growth: 0.992 (inactive)

Lookup result for CC(=O)O[C@@H]1CC[C@@]2(C)C(C[C@@H](OC(C)=O)[C@@]3(C)C4=CC(=O)O[C@@H](c5ccoc5)[C@]4(C)CCC23)C1(C)C (stereo partly drawn) ; measured normalized growth: 0.998 (inactive)

Lookup result for CC(N=C(NC#N)Nc1ccncc1)C(C)(C)C (stereo not drawn) ; measured normalized growth: 1.02 (inactive)

Lookup result for COc1ccc2cc(CCC(C)=O)ccc2c1 ; measured normalized growth: 0.96 (inactive)

Lookup result for CC[N+](C)(C)c1cccc(O)c1 ; measured normalized growth: 0.976 (inactive)

Lookup result for CC(=O)OC1CCC2(C)C(CC(OC(C)=O)C3(C)C4=CC(=O)OC(c5ccoc5)C4(C)CCC23)C1(C)C (stereo not drawn) ; measured normalized growth: 0.989 (inactive)

Lookup result for CC(=O)O[C@H]1CC[C@@]2(C)C(C[C@@H](OC(C)=O)[C@@]3(C)C4=CC(=O)O[C@@H](c5ccoc5)[C@]4(C)CCC23)C1(C)C (stereo partly drawn) ; measured normalized growth: 0.998 (inactive)

Lookup result for NCC(=O)c1ccccc1 ; measured normalized growth: 0.988 (inactive)

Lookup result for CN(C)[C@@H]1C(=O)C(C(N)=O)=C(O)[C@@]2(O)C(=O)C3=C(O)c4c(O)ccc(Cl)c4[C@@H](O)[C@H]3C[C@@H]12 ; measured normalized growth: 0.981 (inactive)

Lookup result for NC(=O)NC(=O)Cc1ccccc1 ; measured normalized growth: 1 (inactive)

---

Experiment: chemical genetic growth profiling, strain panel (AID 1159580);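 further: tested at 20 µM; growth read once vehicle control cultures reached saturation at 30 °C; 1 = growth at the plate median or of vehicle wells; lower values mean less growth of the strain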
Conditions: S. cerevisiae deletion strains, growth OD, locus YER002W, strain NOP16
In all, about 5,500 compounds went through this assay and about 2,000 (36%) were called active. Roughly 18% stayed inconclusive and do not appear here. No stated cut-off is given here; in the data, active means normalized growth mostly below about 0.91 (no sharp cut-off); inconclusive means no clear call, values can overlap the other calls; inactive means mostly above about 0.92. The list shows a part of the results.
The categories you may choose from are 1 (yes) (active), 0 (no) (inactive)

stdin: Could you check what this test reported for COc1ccc([C@@H]2Sc3ccccc3N(CCN(C)C)C(=O)[C@@H]2OC(C)=O)cc1 ?
stdout: 0 (no)

stdin: Could you check what this test reported for CN(C)CCCN1c2ccccc2Sc2ccccc21 ?
stdout: 0 (no)

stdin: Could you check what this test reported for NC(=O)c1ccccc1 ?
stdout: 0 (no)

stdin: Could you check what this test reported for NCC(O)(CS(=O)(=O)O)c1ccc(Cl)cc1 (centres undefined) ?
stdout: 0 (no)

stdin: Could you check what this test reported for CC(CCc1ccccc1)NCC(O)c1ccc(O)c(C(N)=O)c1 (centres undefined) ?
stdout: 0 (no)

stdin: Could you check what this test reported for O=C1C(SCCO)=C(SCCO)C(=O)c2ccccc21 ?
stdout: 0 (no)

stdin: Could you check what this test reported for O=C(O)C1=CCCNC1 ?
stdout: 0 (no)

stdin: Could you check what this test reported for CC(N)(C(=O)O)c1ccc(C(=O)O)cc1 (centres undefined) ?
stdout: 0 (no)

stdin: Could you check what this test reported for C/C(=C\c1ccc(C(=O)O)cc1)c1ccc2c(c1)C(C)(C)CCC2(C)C ?
stdout: 0 (no)

stdin: Could you check what this test reported for CN(C)CCCN1c2ccccc2CCc2ccc(Cl)cc21 ?
stdout: 0 (no)

stdin: Could you check what this test reported for Nc1ncnc2c1ncn2C1CCCO1 (centres undefined) ?
stdout: 0 (no)

stdin: Could you check what this test reported for CCN(CC)CCOC(=O)C1(C2CCCCC2)CCCCC1 ?
stdout: 0 (no)

stdin: Could you check what this test reported for O=P1(N(CCCl)CCCl)NCCCO1 (centres undefined) ?
stdout: 0 (no)

stdin: Could you check what this test reported for O=c1[nH]c2cc(Cl)ccc2c(O)c1-c1ccc(Oc2ccccc2)cc1 ?
stdout: 0 (no)

stdin: Could you check what this test reported for CCCN1CC(CSC)CC2c3cccc4[nH]cc(c34)CC21 (centres undefined) ?
stdout: 0 (no)

stdin: Could you check what this test reported for NCCNS(=O)(=O)c1cccc2cnccc12 ?
stdout: 0 (no)

stdin: Could you check what this test reported for O=C1c2ccccc2-c2n[nH]c3cccc1c23 ?
stdout: 0 (no)

stdin: Could you check what this test reported for NCCCNCCCCNCCCN ?
stdout: 0 (no)

stdin: Could you check what this test reported for CCc1cccc(N(C)C(N)=Nc2cccc3ccccc23)c1 ?
stdout: 0 (no)

stdin: Could you check what this test reported for O=C1N(c2ccccc2)c2ccccc2C1(Cc1ccncc1)Cc1ccncc1 ?
stdout: 0 (no)

stdin: Could you check what this test reported for CC1c2cccc(O)c2C(O)=C2C(=O)C3(O)C(O)=C(C(N)=O)C(=O)C(N(C)C)C3C(O)C21 (centres undefined) ?
stdout: 0 (no)

stdin: Could you check what this test reported for O=C(O)c1cc[c]([Hg][Cl])cc1 ?
stdout: 1 (yes)

stdin: Could you check what this test reported for CN(C)CCCN1c2ccccc2Sc2ccc(C(F)(F)F)cc21 ?
stdout: 0 (no)

stdin: Could you check what this test reported for Nc1ncn(C2OC(CO)C(O)C2O)c(=O)n1 (centres undefined) ?
stdout: 0 (no)

---

Test: chemical genetic growth profiling, strain panel (AID 1159580);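 further: tested at 20 µM; growth read once vehicle control cultures reached saturation at 30 °C; 1 = growth at the plate median or of vehicle wells; lower values mean less growth of the strain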
Settings: S. cerevisiae deletion strains, growth OD, locus YJL092W, strain hpr5
The campaign covered roughly 5,500 compounds. About 2,000 (36%) were called active. Not shown: some 18% with an inconclusive outcome. No stated cut-off is given here; in the data, active means normalized growth mostly below about 0.91 (no sharp cut-off); inconclusive means no clear call, values can overlap the other calls; inactive means mostly above about 0.92. The list shows a part of the results.
The categories you may choose from are True (active), False (inactive)

stdin: Could you check what this test reported for COc1ccc2cc(CCC(C)=O)ccc2c1 ?
stdout: False

stdin: Could you check what this test reported for COc1cc(C(C)=O)cc(OC)c1O ?
stdout: False

stdin: Could you check what this test reported for COc1ccc(C2Sc3ccccc3N(CCN(C)C)C(=O)C2OC(C)=O)cc1 (centres undefined) ?
stdout: False

stdin: Could you check what this test reported for N[C@@H](CCC(=O)N[C@@H](CS)C(=O)NCC(=O)O)C(=O)O ?
stdout: False

stdin: Could you check what this test reported for CCOC(=O)NNc1nncc2ccccc12 ?
stdout: False

stdin: Could you check what this test reported for CC(C)NCC(O)COc1ccc(COCCOC(C)C)cc1 (centres undefined) ?
stdout: False

stdin: Could you check what this test reported for O=C(O)C1=CCCNC1 ?
stdout: False

stdin: Could you check what this test reported for Cc1cc(=O)oc2cc(O)c(O)cc12 ?
stdout: False

stdin: Could you check what this test reported for CC1=CC(=O)c2ccccc2C1=O ?
stdout: False

stdin: Could you check what this test reported for CC(C)CCCC(C)[C@H]1CCC2C3CC=C4C[C@@H](O)CC[C@]4(C)C3CC[C@@]21C (some centres undefined) ?
stdout: False

stdin: Could you check what this test reported for CC(C)CCCC(C)[C@H]1CCC2C3CC=C4CC(=O)CC[C@]4(C)C3CC[C@@]21C (some centres undefined) ?
stdout: False

stdin: Could you check what this test reported for CN(C)[C@@H]1C(=O)C(C(=O)NCN2CCCC2)=C(O)[C@@]2(O)C(=O)C3=C(O)c4c(O)cccc4[C@@](C)(O)[C@H]3C[C@@H]12 ?
stdout: False

stdin: Could you check what this test reported for CC(=O)OCC(=O)[C@@]1(O)[C@H](C)CC2C3CCC4=CC(=O)C=C[C@]4(C)[C@@]3(F)[C@@H](O)C[C@@]21C (some centres undefined) ?
stdout: False

stdin: Could you check what this test reported for CCN1CCN(C(=O)NC(C(=O)N[C@@H]2C(=O)N3[C@@H]2SC(C)(C)[C@@H]3C(=O)O)c2ccccc2)C(=O)C1=O (some centres undefined) ?
stdout: False

stdin: Could you check what this test reported for CC(C)CCCC(C)[C@H]1CCC2C3C(=O)C=C4C[C@@H](O)CC[C@]4(C)C3CC[C@@]21C (some centres undefined) ?
stdout: False

stdin: Could you check what this test reported for CC(=O)Oc1ccc(O)cc1 ?
stdout: False

stdin: Could you check what this test reported for CC(=O)O[C@H]1CCC2(C)C3=C(CCC2C1(C)C)[C@@]1(C)CC[C@@H](C(C)CCC=C(C)C)[C@]1(C)CC3 (some centres undefined) ?
stdout: False

stdin: Could you check what this test reported for CC(C)CCCC(C)C1CCC2C3C[C@@H](O)[C@@]4(O)C[C@@H](O)CC[C@]4(C)C3CC[C@]12C (some centres undefined) ?
stdout: False

stdin: Could you check what this test reported for CC(=O)O[C@H]1CC[C@@]2(C)C(=CC(=O)C3C4CCC(C(C)CCCC(C)C)[C@@]4(C)CCC32)C1 (some centres undefined) ?
stdout: False

stdin: Could you check what this test reported for CC12CCC3C(CC3(C)C)C(C)(CCC1=O)O2 (centres undefined) ?
stdout: False

stdin: Could you check what this test reported for CC(=O)O[C@@H]1CC2C(C)(C)[C@H](O)C=C[C@]2(C)C2CC[C@]3(C)C(=CC(=O)O[C@H]3c3ccoc3)[C@@]21C (some centres undefined) ?
stdout: False

stdin: Could you check what this test reported for CC(C)=CC1C(C(=O)O)C1(C)C (centres undefined) ?
stdout: False

stdin: Could you check what this test reported for N=C(N)N ?
stdout: False

stdin: Could you check what this test reported for CC(=O)Oc1ccc(/C=C/c2cc(OC(C)=O)cc(OC(C)=O)c2)cc1 ?
stdout: False

stdin: Could you check what this test reported for CN(C)[C@@H]1C(=O)C(C(N)=O)=C(O)[C@@]2(O)C(=O)C3=C(O)c4c(O)ccc(Cl)c4[C@@](C)(O)[C@H]3C[C@@H]12 ?
stdout: False

stdin: Could you check what this test reported for OC[C@H]1O[C@@](CO)(O[C@@H]2O[C@H](CO)[C@@H](O)[C@H](O)[C@H]2O)[C@@H](O[C@@H]2O[C@H](CO)[C@@H](O)[C@H](O)[C@H]2O)[C@@H]1O ?
stdout: False

stdin: Could you check what this test reported for O=P1(N(CCCl)CCCl)NCCCO1 (centres undefined) ?
stdout: False

stdin: Could you check what this test reported for COC1CC2CCC(C)C(O)(O2)C(=O)C(=O)N2CCCCC2C(=O)OC(C(C)CC2CCC(O)C(OC)C2)CC(=O)C(C)/C=C(\C)C(O)C(OC)C(=O)C(C)CC(C)/C=C/C=C/C=C/1C (centres undefined) ?
stdout: True

stdin: Could you check what this test reported for CC(C)c1ccc2c(c1)CCC1C(C)(C(N)=O)CCCC21C (centres undefined) ?
stdout: False

stdin: Could you check what this test reported for CC1=CCCC2C1(C)CCC(C)C2(C)CC/C(C)=C/C[n+]1cn(C)c2c(N)ncnc21 (centres undefined) ?
stdout: False

stdin: Could you check what this test reported for CC(=O)c1cc(CC=C(C)C)c(O)c(CC=C(C)C)c1 ?
stdout: False

stdin: Could you check what this test reported for Cc1nc(N)cc(C[n+]2csc(CCO)c2C)n1 ?
stdout: False

stdin: Could you check what this test reported for CN(C)CCCN1c2ccccc2CCc2ccc(Cl)cc21 ?
stdout: False

stdin: Could you check what this test reported for CN[C@@H]1[C@H](O)[C@H](NC)[C@H]2O[C@@]3(O)C(=O)C[C@@H](C)O[C@H]3O[C@@H]2[C@H]1O ?
stdout: False

stdin: Could you check what this test reported for CC(C)c1ccc2c(c1)CCC1[C@](C)(CN)CCC[C@]21C (some centres undefined) ?
stdout: False

stdin: Could you check what this test reported for CN(C)CCCN1c2ccccc2Sc2ccccc21 ?
stdout: False

stdin: Could you check what this test reported for CC(C)=CCc1c2c(c3occ(-c4ccc(O)c(O)c4)c(=O)c3c1O)C=CC(C)(C)O2 ?
stdout: False

stdin: Could you check what this test reported for CC(=O)O[C@@H]1CC2C(C)(C)C(=O)C=C[C@]2(C)C2CC[C@]3(C)C(=CC(=O)O[C@H]3c3ccoc3)[C@@]21C (some centres undefined) ?
stdout: False

stdin: Could you check what this test reported for CC(=O)O[C@@H]1C=C[C@@]2(C)C(C[C@@H](OC(C)=O)[C@@]3(C)C4=CC(=O)O[C@@H](c5ccoc5)[C@]4(C)CCC23)C1(C)C (some centres undefined) ?
stdout: False
